Tested on: A549-ACE2
ASSAY PROCEDURE: drug-induced phospholipidosis relative to tamoxifen; higher = more phospholipidosis
CONDITION PARAMETERS: 6.66667 µM; 48 h
So I've got a bunch of molecules here, and I need their drug-induced phospholipidosis values.
Quick reminder: number only, in %, skip the unit.

The reported value for CCCCCCCCNC(C)C(O)c1ccc(SC(C)C)cc1 (configuration not stated) in terms of drug-induced phospholipidosis is 35.5

Sure, the documented drug-induced phospholipidosis for CNC(=O)c1ccccc1Sc1ccc2c(/C=C/c3ccccn3)n[nH]c2c1 is 7.9

According to the records, this molecule CC(C)Oc1ccc(-c2nc(-c3cccc4c3CC[C@@H]4NCCO)no2)cc1C#N displays drug-induced phospholipidosis of 90.1

Value of measured drug-induced phospholipidosis for the entry O=c1[nH]c2ccccc2n1C1CCN(CCCC(c2ccc(F)cc2)c2ccc(F)cc2)CC1 [pimozide] : 56.9

Record summary for C=CCN(C)CCCCCCOc1ccc(C(=O)c2ccc(Br)cc2)c(F)c1 : reported drug-induced phospholipidosis = 96.4

The reported drug-induced phospholipidosis of the molecule C[C@H]1[C@H](NC(=O)/C(=N\OC(C)(C)C(=O)O)c2csc(N)n2)C(=O)N1S(=O)(=O)O was -0.48

// field: drug-induced phospholipidosis; key: CCC(CC)COC(=O)[C@H](C)N[P@](=O)(OC[C@H]1O[C@@](C#N)(c2ccc3c(N)ncnn23)[C@H](O)[C@@H]1O)Oc1ccccc1 ; value = 4.58

====

System: Caco-2
ASSAY PROCEDURE: cell viability relative to DMSO; higher = less toxic
CONDITION PARAMETERS: 72 h; 10000 nM
Provide the reported cell viability of each item.
Give the number; % is assumed, so skip it.

So for CCCC(=O)O[C@]1(C(=O)CO)CC[C@H]2[C@@H]3CCC4=CC(=O)CC[C@]4(C)[C@H]3[C@@H](O)C[C@@]21C [hydrocortisone-butyrate] , the logged cell viability turned out to be 102

Reported cell viability of CCCCN(Cc1ccc(C(=O)NO)cc1)C(=O)Nc1ccccc1 : 52.3

response.value for OC(CCN1CCCCC1)(c1ccccc1)C1CC2C=CC1C2 (centres undefined) (field: cell viability) = 104

cell viability measured on CCCCCCCCNC(C)C(O)c1ccc(SC(C)C)cc1 (centres undefined) = 92.6

Reported cell viability for CC(C)SC(=N)N was 91.9

Sure, the documented cell viability for CN1CCN(CCCN2c3ccccc3Sc3ccc(S(=O)(=O)N(C)C)cc32)CC1 is 79

So, Cc1cc(NC(=O)Nc2ccc(N(C)C)cc2)c2cc(F)cc(F)c2n1 ? Its cell viability was 91.6

Please fill in: cell viability reported for S=C(NCc1ccc2c(c1)OCO2)N1CCN(c2ncnc3c2oc2ccccc23)CC1 = 68.3

cell viability measured on O=C1c2ccccc2-c2c(NCCc3ccccc3)c(=O)[nH]c3cccc1c23 = 61.9

====

Tested on: HepG2
ASSAY PROCEDURE: drug sensitivity score (DSS) for viability; higher = more toxic; extreme values may be limits of the assay
CONDITION PARAMETERS: 72 h
I'd appreciate it if you could supply drug sensitivity score values for the items below.
Form field (numeric): enter value without unit.

# drug sensitivity score (molecule: C[C@@H]1CC[C@@]2(NC1)O[C@H]1C[C@H]3[C@@H]4CC=C5C[C@@H](O[C@@H]6O[C@H](CO)[C@@H](O[C@@H]7O[C@@H](C)[C@H](O)[C@@H](O)[C@H]7O)[C@H](O)[C@H]6O[C@@H]6O[C@@H](C)[C@H](O)[C@@H](O)[C@H]6O)CC[C@]5(C)[C@H]4CC[C@]3(C)[C@H]1[C@@H]2C [solamargine] ) is 7.2

Summary for this molecule, O=C(CCCCCCC(=O)Nc1ccccc1)NO [vorinostat] : drug sensitivity score is 9.7

O=C(O)CCNc1cc(N2CCc3ccccc3CC2)nc(-c2cccnc2)n1 [GSK-J2] yielded drug sensitivity score of 0

// drug sensitivity score value for CCCC(=O)O[C@]1(C(=O)CO)CC[C@H]2[C@@H]3CCC4=CC(=O)CC[C@]4(C)[C@H]3[C@@H](O)C[C@@]21C [hydrocortisone-butyrate] : 0

Per the record, CC[C@@H]1C(=O)N(C)c2cnc(Nc3ccc(C(=O)NC4CCN(C)CC4)cc3OC)nc2N1C1CCCC1 [BI-2536] has drug sensitivity score of 26.1

Kindly note the recorded drug sensitivity score for CCN(CC)CCCC(C)Nc1c2ccc(Cl)cc2nc2ccc(OC)cc12 (stereo not drawn) [mepacrine] , which is 8.9

Entry CN(CCOc1ccc(-c2ccc3c(c2)OCO3)cc1C(C)(C)C)CC(=O)O ; drug sensitivity score = 0

The molecule CC1CCN(CCCC(=O)c2ccc(F)cc2)CC1 [melperone] showed drug sensitivity score equal to 0
